- Target under test: CYP1A2 (Homo sapiens)
- Sequence (P05177 1-516): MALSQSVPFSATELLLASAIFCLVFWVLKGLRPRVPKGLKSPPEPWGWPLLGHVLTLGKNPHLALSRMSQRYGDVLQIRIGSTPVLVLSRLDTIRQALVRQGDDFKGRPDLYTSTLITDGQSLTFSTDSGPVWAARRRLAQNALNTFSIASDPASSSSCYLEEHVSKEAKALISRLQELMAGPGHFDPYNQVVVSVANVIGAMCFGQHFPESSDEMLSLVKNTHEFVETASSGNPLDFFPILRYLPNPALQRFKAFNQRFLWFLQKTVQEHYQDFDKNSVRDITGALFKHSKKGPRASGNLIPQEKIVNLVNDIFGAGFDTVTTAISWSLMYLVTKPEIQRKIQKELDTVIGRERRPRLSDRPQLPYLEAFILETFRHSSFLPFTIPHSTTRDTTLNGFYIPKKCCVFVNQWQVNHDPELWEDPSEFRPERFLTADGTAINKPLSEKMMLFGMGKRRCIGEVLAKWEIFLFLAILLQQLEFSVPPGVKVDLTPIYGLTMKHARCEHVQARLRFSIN
- Assay protocol: CYP inhibition screening, CYP1A2
- Assay type: in vitro ADME
- Stated conditions: test concentration 10 μM
Endpoint label: CYP inhibition, CYP1A2
A complete answer gives the number and then names the unit.

So what's the measured CYP inhibition, CYP1A2 for this one? Nc1ccc(N2CCOCC2)c2nonc12 [Compound 11]
37.0%

Look up CYP inhibition, CYP1A2 for this molecule: Cn1c(=O)[nH]c(=O)c2c1nc(S)n2CC(O)COc1ccc(Cl)cc1 (centres unmarked) [Compound 38]
10.5%

Endpoint output: CYP inhibition, CYP1A2 of CCN(CC)c1ccc(CN2CCc3nc(C)[nH]c(=O)c3C2)c(OC)c1 [Compound 64] . Value?
22.2%

Form field: reported CYP inhibition, CYP1A2 of Cc1cccc(NCc2ccc(O)c3ncccc23)c1C [Compound 12]
44.5%

Next up:
// returns reported CYP inhibition, CYP1A2 for input COc1ccc(N2CCN(C(c3ccc(N(C)C)cc3)c3nnnn3C(C)(C)C)CC2)cc1 (centres unmarked) [Compound 31]
10.3%
